Data origin, for the record: patent US20090232838A1

Please go through the items and note down their EC50.
# subject-of-test: hMC1-R (Homo sapiens, UniProt Q01726)
# Construct: expressed in transfected cells; host or cells: CHO-K1
# Sequence (Q01726 whole entry): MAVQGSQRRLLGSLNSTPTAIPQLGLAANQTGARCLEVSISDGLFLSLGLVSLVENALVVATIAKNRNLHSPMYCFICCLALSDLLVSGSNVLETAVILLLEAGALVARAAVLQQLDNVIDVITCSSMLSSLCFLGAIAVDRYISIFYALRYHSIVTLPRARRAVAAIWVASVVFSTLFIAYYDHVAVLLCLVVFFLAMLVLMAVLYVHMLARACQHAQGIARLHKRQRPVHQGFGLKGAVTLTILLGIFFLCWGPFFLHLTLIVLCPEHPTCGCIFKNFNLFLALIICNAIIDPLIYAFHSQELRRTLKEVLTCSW
# assay-details: cyclic AMP bioassay, hMC1-R
# Format: cell-based
Where a SMILES comes first, the peptide text is derived from it. Bridges are numbered along the chain shown (N, C = ends). [ ]: non-standard residue; d: D form. 2Nal = N[C@@H](Cc1ccc2ccccc2c1)C(=O)O; d2Nal = N[C@H](Cc1ccc2ccccc2c1)C(=O)O; Aib = CC(C)(N)C(=O)O

Request: EC50, test system hMC1-R (Homo sapiens, UniProt Q01726), entry CC(=O)N[C@H]1CSSC[C@@H](C(=O)N2CCC[C@H]2C(=O)N2CCC[C@H]2C(=O)N[C@@H](CCCCN)C(=O)N[C@@H](CC(=O)O)C(N)=O)NC(=O)C(C)(C)NC(=O)[C@H](Cc2ccc3ccccc3c2)NC(=O)[C@H](CCCNC(=N)N)NC(=O)[C@@H](Cc2ccc3ccccc3c2)NC(=O)[C@H](Cc2c[nH]cn2)NC(=O)[C@H](CCC(=O)O)NC1=O (Ac-CEH[d2Nal]R[2Nal][Aib]CPPKD-NH2; disulfide 1-8)
770 nM

What value of EC50 on hMC1-R (Homo sapiens, UniProt Q01726) does CCCC[C@H](NC(C)=O)C(=O)N[C@H]1CSSC[C@@H](C(=O)NCCC(=O)N[C@@H](CCCNC(=N)N)C(=O)N[C@@H](CCCNC(=N)N)C(=O)N[C@@H](CCCNC(=N)N)C(=O)N[C@@H](CCCNC(=N)N)C(=O)N[C@@H](CCCNC(=N)N)C(=O)N[C@@H](CCC(N)=O)C(=O)N[C@@H](CCCNC(=N)N)C(=O)N[C@@H](CCCNC(=N)N)C(=O)N[C@@H](CCCNC(=N)N)C(N)=O)NC(=O)[C@H](Cc2c[nH]c3ccccc23)NC(=O)[C@H](CCCNC(=N)N)NC(=O)[C@@H](Cc2ccccc2)NC(=O)[C@H](Cc2c[nH]cn2)NC(=O)[C@@H](C)NC1=O have?
7.15 nM
